These entries and their values trace back to PubChem BioAssay.

The following compounds are shown together with reported z-score values.
Assay: RPMI8226 myeloma cell viability, profiling panel, resazurin fluorescence, basal, 24 h, PK04 Diversity Set (AID 1180);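 note: RPMI8826 multiple myeloma cell line at 5000 cells per well; test concentration not given here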
Settings: higher = more signal
// print number alone

[[record]]
compound = "CCOC(=O)NN=C1C[C@@H](O)[C@@H](O)[C@@H]2[C@@H]3C(=O)N([C@@H](C)c4ccccc4)C(=O)[C@@H]3CC[C@@H]12"
measurement_label = "z-score"
observed_result = -0.436

[[record]]
compound = "O=C1[C@H]2[C@H]3[C@H](O)[C@H](O)CC(=NOC[C@@H](O)COCc4ccco4)[C@H]3CC[C@H]2C(=O)N1C[C@@H]1CCCO1"
measurement_label = "z-score"
observed_result = 0.15

[[record]]
compound = "COC(=O)[C@@H]1CC[C@H](C)[C@@H](c2ccc(C)cc2)N1C(=O)c1ccc(C=NOCC[C@@H]2C=C[C@H](OC(C)=O)[C@@H](COC(C)=O)O2)cc1"
measurement_label = "z-score"
observed_result = -0.337


Query :: Consider the compound "CC(CCN1CCCCc2nc(C)c(C)cc21)=NO[C@H](C)c1cn([C@H](CO)Cc2ccccc2)nn1" . State its measured z-score.
Result :: 0.594

Query :: Consider the compound "C[C@@H]1CC[C@H]2C(=O)O[C@@H](Cc3ccccc3)CN2[C@H]1c1ccc(Br)cc1" . State its measured z-score.
Result :: 0.0066

Query :: Consider the compound CCOC(=O)[C@H](CC(C)C)NC(=O)CCC1CC(OC(=O)NCc2cccc3ccccc23)CC2(CCCC(COC(=O)NCCC(C)C)O2)O1 (stereo not given in full) . State its measured z-score.
Result :: -0.286

Query :: Consider the compound "C[C@@H](ON=C1[C@H]2CCn3c(=O)n(-c4ccccc4)c(=O)n3[C@H]2[C@H](O)[C@@H]2O[C@H]12)c1cn([C@@H]2COC[C@H]2O)nn1" . State its measured z-score.
Result :: -0.715

Query :: Consider the compound "C[n+]1ccc(-c2ccc(CO)cc2)cc1" . State its measured z-score.
Result :: -0.674

Query :: Consider the compound "C#CCCCON=C1[C@H]2CCn3c(=O)n(C)c(=O)n3[C@H]2[C@H](O)[C@@H]2O[C@H]12" . State its measured z-score.
Result :: -1.93

Query :: Consider the compound "COC(=O)CC=C[C@@H](C)[C@@H](C=NOC[C@H]1O[C@H](c2ccccc2)C=C[C@@H]1Oc1ccc(OC)cc1)OC" . State its measured z-score.
Result :: 0.264

Query :: Consider the compound "CO[C@H]1COC(=O)CC=C[C@H](C)COC(=O)[C@@H](C)NC(=O)CC=C[C@@H]1C" . State its measured z-score.
Result :: 0.961
